Source: the supplement of paper PMC9170038

- System: K4 kissing-loop RNA reporter
- MEASUREMENT_DESCRIPTION: apparent KD of K4 kissing-loop reporter; higher = weaker reporter binding
- DETAILS: Eterna round: R107; input ligand: FMN 200 uM
OBSERVABLE: apparent KD of K4 kissing-loop reporter
Respond with a number, then the unit of measure.

Consider the reported apparent KD of K4 kissing-loop reporter for these sequences:
>  <SEQUENCE_DATA>
AAGUAGCUCUCGGCCGCCACUCCUCAGUGAUGUUGAGAUUUUUUCUGCCAAUUGGCGUUUUUUUAGAGGACCGGGAGAGCUACAA [AK1 SS Tryptophan B]

>  <apparent KD of K4 kissing-loop reporter>
332 nM

$$$$
>  <SEQUENCE_DATA>
UGUGGAGAAUAUGAUACCAGCAGUGAGAGAGAGGAAGUAUAGUGAUGUUAUAUGAGAGAAUGCCCUUGGCAGCAUAUGUAGAAGG [SSTheophylB.F]

>  <apparent KD of K4 kissing-loop reporter>
133 nM

$$$$
>  <SEQUENCE_DATA>
UAGUGUCGCGCAGGAUAUACUGAUUGGAGUGAUGUUCCAAACAUGCACGUGUGACUUUUACAAGAAGUAGAAGGGCGUGAGACAU [Exclusion FMN B GF 22]

>  <apparent KD of K4 kissing-loop reporter>
303 nM

$$$$
>  <SEQUENCE_DATA>
UAAUGUGGCACAGGAUAUACUGAUUGGAGUGAUGUUCCAAACAUGAACAAGAGACUUUUACAAGAAGUAGAAGGGUGUUAGAUAU [Exclusion FMN B GF 19]

>  <apparent KD of K4 kissing-loop reporter>
269 nM

$$$$
>  <SEQUENCE_DATA>
GUGCGGCUAGUGAUGUUGGUUGCGUGGGAAGGAGCGCAGAAACAUGCAGGUAGGUCGCCCACACCUCUGAAAGGAGGCUAAUUCA [Bisobi]

>  <apparent KD of K4 kissing-loop reporter>
277 nM

$$$$

IN: Return reported apparent KD of K4 kissing-loop reporter for target or system K4 kissing-loop RNA reporter, item CGCAGGAUGGAAGGAUAUGGGAGUUGACGUCGCCGAGCUAACCUUCUGCACGGAGUGAUGUUUAGACCAGAAGGUCCUCGGAGCA [theeternabot_exclusion_KL_FMN_B_17] .
OUT: 1210 nM

IN: Report the value of apparent KD of K4 kissing-loop reporter obtained on K4 kissing-loop RNA reporter for GCCGUACGCAUGGAUACCAGCAUGCAUAUUAGCUAGUGAUGUUAGCGCUAUGCGAUGCUAUGCCCUUGGCAGCCAUGCGUACGGC .
OUT: 124 nM

IN: State apparent KD of K4 kissing-loop reporter (K4 kissing-loop RNA reporter) of UUUAACGAGUGAUGUUCGUAAAGUAAUAGUUAGGAUAUCGUUUUUUCGAGAAGGAACUUCGAAGUGAUACGAAAGUAUCGCUUCG [FMN A 8] .
OUT: 136 nM

IN: State, for K4 kissing-loop RNA reporter, measured apparent KD of K4 kissing-loop reporter of the sequence listed here: GUCCACACUGCAGGAUAUGGAGAAAUAGCGAGGGAGCUUGGAAGCACGCCUCUGGCAGUGAUGUUGCCAGAAGGGCGGUGCGGCG [Dilazasole]
OUT: 106 nM

IN: Report value only: apparent KD of K4 kissing-loop reporter, K4 kissing-loop RNA reporter, ACGUCACGUAAACUCGUGGUUUCGAUCGAUACCAGUAGCGAGAGUUACCCUUGGCAGCGACAUGAGUGAUGUUCAUGUACGAAGA [KL-XTheoA1]
OUT: 101 nM

IN: Provide apparent KD of K4 kissing-loop reporter, tested on K4 kissing-loop RNA reporter, for AUAUUACUAUACGAUACCAGCCCUAACACUAGUGACGCGGUAAUAGUGAUGUUGUAACCCGGCCCUUGGCAGCGUAAUCAUGGAA [theeternabot_sameState_KL_Theo_B_7] .
OUT: 529 nM

IN: Tell me apparent KD of K4 kissing-loop reporter of AAGCAGUCAGGAUCGAAGAUCCUGCAAUACCGAGGACCGGUACGGCCGCCACUCGGAGUGAUGUUCCGAAGACUGCAAAAUAAAA [#SwitchBubble 7] when tested on K4 kissing-loop RNA reporter.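 Further: bound reporter read as fluorescence of individual clusters on recovered sequencing chips by microscopy, with normalized cluster intensities fitted with a binding model.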
OUT: 436 nM
